Reported pEC50 is given for each of the following compounds.
# Test system: HBV viral production from HepAD38 cells
# TEST_NAME: Activity of test compounds on viral production from HepAD38 cells (viral load by qPCR of HBV core sequence in supernatant)
# Type: cell-based
# TEST_PARAMETERS: Hepatitis B virus, 120 h, 5 days incubation, HBV DNA in supernatant by qPCR, top concentration 10 μM, read-out: Viral Load EC50 Activity range
# Experimental: Assay Measuring Activity of Test Compounds on Viral Production from HepAD38 Cells […] Subsequently viral load production was assayed by quantitative PCR (qPCR) of the HBV core sequence. […] Viral load was quantified against known HBV DNA standards by using ViiA™ 7 Software. […] Incubated the plate at room temperature for 10 min on an orbital shaker, and then read the plate with a plate reader (TECAN M1000 or Envision). […]
pEC50: −log10 of the molar value.

In: // query pEC50 value for entry CN1C(C(=O)Nc2ccc(F)c(Cl)c2)CC(c2ccc(-c3ccc(Br)c(F)c3)s2)NS1(=O)=O (centres unmarked) [HBV-CSU-157]
Out: 5.30 to 6.00

In: Let us now turn to CN1[C@H](C(=O)Nc2ccc(F)c(Cl)c2)C[C@H](c2ncc(-c3ccc(F)cc3)s2)NS1(=O)=O [HBV-CSU-248-ISO-I]
Out: > 6.00

In: Input CN1C(C(=O)Nc2ccc(F)c(Cl)c2)CC(c2cc(-c3cncnc3)cs2)NS1(=O)=O (racemic) [HBV-CSU-290]
Out: > 6.00

In: Cool, now O=C(Nc1ccc(F)c(Cl)c1)[C@H]1C[C@@H](c2nccs2)NS(=O)(=O)N1CCc1c[nH]nn1 [HBV-CSU-092-ISO-II]
Out: < 5.30

In: Try CN1C(C(=O)Nc2ccc(F)c(Cl)c2)CC(c2ccns2)NS1(=O)=O (centres unmarked) [HBV-CSU-057] next.
Out: > 6.00
